Value source: PubChem BioAssay

Assign z-score to each entry below.
Experiment: budding yeast growth changes without added modifier – OD600, strain BY4716, 24 h, basal condition, primary screen (AID 1173)
Conditions: S. cerevisiae BY4716 growth, OD600, 24 h; higher = more signal, called active from +8 up or from −8 down
Active and inactive are the calls of the source.

IN: Supply z-score value. Item: CCCC=C(CCC)[C@@H](NS(=O)(=O)c1cccc2cccnc12)c1ccc(C(=O)OC)cc1
OUT: 1.35 (inactive)

IN: Kindly indicate its recorded z-score. Item: CCCC[C@@H](O)C1=C(COc2ccccc2)Cn2c(=O)n(-c3ccccc3)c(=O)n2[C@H]1CO
OUT: -4 (inactive)

IN: Annotate the molecule O=C1OCC=C[C@H]2OC34C=CCN(CCN5CCOCC5)C(=O)[C@H]3N(CCCCCO)C(=O)[C@@H]4[C@@H]12 (some centres undefined) with its measured z-score.
OUT: -0.654 (inactive)

IN: Entry COc1cc(C(O)C2C=CC3C(=O)NC(=O)C3N2Nc2ccc(Cl)cc2Cl)cc(OC)c1OC (centres undefined) needs its z-score filled in; supply it.
OUT: -12.7 (active)

IN: Return value of z-score for input C=CCN1C(=O)[C@@]2(O[C@@H](CCn3cc([C@H](O)c4ccccc4)nn3)[C@H]([Si](C)(C)c3ccc(OC)cc3)[C@H]2C)c2cc(NC(=O)c3ccc(OC)cc3)ccc21 , no commentary.
OUT: 0.336 (inactive)

IN: Read off the recorded z-score for C=CC[C@]1(C(=O)NCC(O)CO)N=C(c2ccc(OCCCO)cc2)O[C@H]1c1ccccc1N=[N+]=[N-] (some centres undefined)
OUT: -0.746 (inactive)

IN: Tell me its z-score given C=C[C@H](C)[C@H](OC(=O)Nc1ccc(SC)cc1)c1ccc(O)c2ccccc12 as the entry.
OUT: -18.5 (active)

IN: Look up z-score of C=CCOC(=O)[C@H]1[C@@H]2C(=O)O[C@@H](c3ccccc3)[C@@H](c3ccccc3)N2[C@@H](c2ccc(OCCOC(=O)[C@H]3C[C@H]4C(=O)N[C@@H](CCCCN(C)C)C(=O)N4[C@H]3c3ccc(O)cc3)cc2)[C@]12C(=O)Nc1ccccc12 and report it.
OUT: -2.35 (inactive)

IN: Please report the measured z-score for Cc1ccc(S[C@]2(C(=O)O)CC(=O)N(Cc3ccccc3C(F)(F)F)[C@@H]2c2ccc(CO)cc2)cc1
OUT: -0.0891 (inactive)

IN: Look up and report measured z-score for this entry: O=C1CSC(c2cccc([N+](=O)[O-])c2)N1c1ccccc1 (centres undefined)
OUT: 0.483 (inactive)

IN: Give z-score for [N-]=[N+]=NCc1ccccc1[C@H]1OC(c2ccc(OCCCO)cc2)=N[C@@]1(Cc1ccccc1N=[N+]=[N-])C(=O)N1CCCCC1
OUT: -0.707 (inactive)

IN: Output z-score of COc1ccc(C(=O)Nc2ccc3c(c2)[C@]2(O[C@@H](CCO)[C@H]([Si](C)(C)c4ccc(OC)cc4)[C@H]2C)C(=O)N3Cc2ccccc2)cc1
OUT: -2.35 (inactive)

IN: Tell me measured z-score for CCCCC(CC)C(O)C1C=CC2C(=O)NC(=O)C2N1Nc1ccccn1 (centres undefined) please.
OUT: 0.332 (inactive)

IN: Identify the reported z-score for the following entry. COCCCNC(=O)[C@@H]1c2ccccc2C(=O)N(Cc2cc(F)cc(C(F)(F)F)c2)[C@H]1c1ccc(CO)cc1
OUT: -0.336 (inactive)

IN: Report measured z-score; entry is CC(C)[Si](C#C[Si](C(C)C)(C(C)C)C(C)C)(O[C@H](C)c1cn(Cc2cccc(Cl)c2)nn1)C(C)C
OUT: 0.916 (inactive)

IN: Check the records and state z-score for C=C(CCCC)/C(=C/C[C@H](OC(=O)c1ccncc1)c1ccc(CO)o1)c1cc(C(=O)OC)ccc1OC
OUT: -0.756 (inactive)

IN: Write down z-score measured for item C[C@@]1([C@@H](NC(=O)c2cccs2)c2ccc(-c3ccccc3)cc2)C[C@H]1C1CCCCC1
OUT: 0.774 (inactive)

IN: Report z-score, nothing else, for this molecule: C=CCC(OC(C)=O)[C@@H]1[C@@H](N(Cc2ccc(-c3cccc(C(F)(F)F)c3)o2)C(=O)c2cccc3ccccc23)c2cc(OCCCO)ccc2N1C(=O)c1ccc(-c2ccccc2)cc1 (some centres undefined)
OUT: -0.0033 (inactive)

IN: In one line, give reported z-score of the entry Cc1ccc(S[C@]2(C(=O)O)CC(=O)N(C3CCCCC3)[C@@H]2c2ccc(CO)cc2)cc1 .
OUT: -1.74 (inactive)

IN: Name the recorded z-score of the item C=CCOC(=O)[C@@H]1[C@H]2C(=O)O[C@H](c3ccccc3)[C@H](c3ccccc3)N2[C@H](c2ccc(OCCOC(=O)[C@H]3C[C@H]4C(=O)N[C@@H](Cc5ccccc5)C(=O)N4[C@H]3c3cccc(OCCO)c3)cc2)[C@@]12C(=O)Nc1ccc(I)cc12 in your answer.
OUT: -0.215 (inactive)

IN: Output z-score of COCCCNC(=O)[C@@H]1c2ccccc2C(=O)N(c2ccc(C)cn2)[C@H]1c1ccc(CO)cc1
OUT: 0.357 (inactive)

IN: Retrieve z-score measured for COCCOC(=O)N1C(=O)[C@@]2(c3cc(C#Cc4ccc(OC)cc4)ccc31)[C@H](c1ccc(OCCO)cc1)N1[C@H](c3ccccc3)[C@H](c3ccccc3)OC(=O)[C@H]1[C@@H]2C(N)=O and print it.
OUT: 1.71 (inactive)

IN: State its z-score for this molecule: C=C(/C(=C/C[C@@H](OC(=O)c1ccncc1)c1cccc(OCCO)c1)c1cc(C(=O)OC)ccc1OC)C(C)C
OUT: -0.243 (inactive)

IN: Look up and report measured z-score for this entry: C[N+](C)(C)CCCCCCNC(=O)[C@H]1C[C@H]2C(=O)N3CCC[C@H]3C(=O)N2[C@H]1c1cccc(OCCO)c1
OUT: -0.187 (inactive)

IN: Assign z-score to the following record: Cc1cc(C)c(C(O)C2C=CC3C(=O)N(c4ccccc4)C(=O)C3N2Nc2ccccc2)c(C)c1 (centres undefined)
OUT: 0.439 (inactive)

IN: Determine its reported z-score: CN(C)CCCNC(=O)[C@@]1(Cc2ccccc2I)c2ccccc2C(=O)N(Cc2ccccc2Cl)[C@H]1c1ccc(CO)cc1
OUT: -7.72 (inactive)

IN: Consider the molecule NCCCCCCNC(=O)[C@H]1C[C@H]2C(=O)N3CCC[C@H]3C(=O)N2[C@H]1c1ccc(O)cc1 and give its recorded z-score.
OUT: -0.438 (inactive)

IN: Consider the molecule COCCCNC(=O)[C@]1(Cc2ccccc2)N=C(c2ccc(OCCCO)cc2)O[C@@H]1c1ccccc1N=[N+]=[N-] . State its measured z-score.
OUT: -1.75 (inactive)

IN: Input O=[N+]([O-])c1ccc(C[n+]2ccc(-c3ccc(CO)cc3)cc2)o1 , output reported z-score.
OUT: -5.16 (inactive)
